Please provide measured binding signal for the entries that follow.
# system: OsWRKY34 (Oryza sativa, UniProt Q0JBA9 1-250)
# Sequence (Q0JBA9 entry or part of it): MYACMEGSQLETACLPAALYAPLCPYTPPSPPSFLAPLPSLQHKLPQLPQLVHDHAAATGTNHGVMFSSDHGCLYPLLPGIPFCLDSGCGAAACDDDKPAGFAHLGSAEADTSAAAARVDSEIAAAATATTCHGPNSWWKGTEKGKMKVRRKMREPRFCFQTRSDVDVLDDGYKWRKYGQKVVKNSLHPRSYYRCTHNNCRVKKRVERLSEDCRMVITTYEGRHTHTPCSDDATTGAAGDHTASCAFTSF
# assayProtocol: protein-binding microarray (RPBM); PBS, 2% BSA, 51.3 ng/ul salmon testes DNA, 50 uM zinc acetate, 200 nM TF, 25 C, 1 h; high values mean tight binding
# cond: protein: recombinant; tags: N-terminal polyhistidine and DsRed monomer fusion (pET32a); label: CyDye5-dUTP incorporated in the synthesized complementary strand; 3' TTTTT single-stranded linker to array surface; dsDNA, one strand shown
The full ranking holds about 68,000 sequences; the median of “fluorescence intensity (a.u.)” is about 9,100, and the highest 2% start at about 16,000. This is one part of a sample in which the highest values are shown more often than they occur.

Challenge: Sample `CTTGGGCGTCTTGTGTTTGTGGGTGAGGTAGCCAGCTGCCCGGAGTCACCTAGTGCAG` — what was its binding signal?
Response given: 9910 fluorescence intensity (a.u.)

Challenge: Sample `TGCTTCTTGGACATCGCATCATATTTAAGCATGTTTTCCTCGGAGTCACCTAGTGCAG` — what was its binding signal?
Response given: 10500 fluorescence intensity (a.u.)

Challenge: Sample `TGCTGCTACTACATGTGGTGTGGGTGGTATGGTAGGGCCCCGGAGTCACCTAGTGCAG` — what was its binding signal?
Response given: 9060 fluorescence intensity (a.u.)

Challenge: Sample `CCCCTCGAGTCTGATCCTCCCACTACCAACGTCCACCGGCCGGAGTCACCTAGTGCAG` — what was its binding signal?
Response given: 9210 fluorescence intensity (a.u.)

Challenge: Sample `GTCCTATCGCGTAGCCCACACTCCACCCTATCGCGCCTTCCGGAGTCACCTAGTGCAG` — what was its binding signal?
Response given: 11500 fluorescence intensity (a.u.)

Challenge: Sample `TGTAGCTTACTGCTTTGGTTTGGGCTGGTTGTGGATTGGACGGAGTCACCTAGTGCAG` — what was its binding signal?
Response given: 11900 fluorescence intensity (a.u.)

Challenge: Sample `GCTTACTGGTTATGGTTGGTAGGGTTGGACGTGTAACAGACGGAGTCACCTAGTGCAG` — what was its binding signal?
Response given: 20900 fluorescence intensity (a.u.)

Challenge: Sample `CCAGACAGCTTCAGTTTGCAACGTACCCAAGTAAGAAACACGGAGTCACCTAGTGCAG` — what was its binding signal?
Response given: 9150 fluorescence intensity (a.u.)

Challenge: Sample `AGTTCACTTTAGGTCCCTCTATTTGTCGTCCAGTCTGATTCGGAGTCACCTAGTGCAG` — what was its binding signal?
Response given: 8180 fluorescence intensity (a.u.)
